Data origin, for the record: paper PMC11997985

tested on: porcine liver esterase; assay: Stability in FaSSIF supplemented with esterase; details: pig, FaSSIF supplemented with porcine liver esterase (20 IU/mL)
Give half-life at 0.292 mM for every item shown.

Answered cases to consult:
Provide measured half-life at 0.292 mM on porcine liver esterase for COC(=O)Oc1cccc2[nH]cc(CCN(C)C)c12.O=C(O)/C=C/C(=O)O [Compound 4e] please.
84.6 s

With porcine liver esterase as the test system, provide measured half-life at 0.292 mM for this compound: CN(C)CCc1c[nH]c2cccc(OC(=O)C3CC3)c12.O=C(O)/C=C/C(=O)O [Compound 4g]
73.2 s

Print porcine liver esterase half-life at 0.292 mM for CN(C)CCc1c[nH]c2cccc(OC(=O)OCc3ccccc3)c12.O=C(O)/C=C/C(=O)O.O=CO [Compound 4f] .
26.4 s

Enter half-life at 0.292 mM (test system porcine liver esterase) for CC(=O)Oc1cccc2[nH]cc(CCN(C)C)c12.O=C(O)/C=C/C(=O)O [Compound 4a, 4-acetoxy-N,N-dimethyltryptamine]
54.6 s

Would you mind giving half-life at 0.292 mM for every compound in the list below?
1. CCOC(=O)Oc1cccc2[nH]cc(CCN(C)C)c12.O=C(O)/C=C/C(=O)O [Compound 4i]
2. CC(C)COC(=O)Oc1cccc2[nH]cc(CCN(C)C)c12.O=CO [Compound 4d]

1. 33.6 s
2. 15.6 s
